This collection of values is drawn from PubChem BioAssay AID449762.

Test: M. tuberculosis growth inhibition, HTS (AID 449762);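 also: bacterial growth assessed after seven days of incubation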
Conditions: M. tuberculosis H37Rv growth inhibition, 7H9 media; at 25 µM; active compounds read high
About 1,900 (0.58%) of roughly 330,000 compounds were called active. Another 4% or so got no clear call; they are omitted. Only a sample is shown. Results with a measured potency or affinity are listed apart.
Reported inhibition values follow for various compounds
Report the value in % with no unit label.

See these solved cases before continuing.
COMPOUND: COc1ccccc1C(=O)N/N=C(\C)CC(=O)Nc1ccc2c(c1)OCCO2
inhibition (%): 1.17
--
COMPOUND: Cc1nc(SCc2nc3ccccc3[nH]2)c2oc3ccc(Br)cc3c2n1
inhibition (%): 18

Ask | Item under review: Cc1cc(C)cc(OCC(=O)OCC(=O)NC2CCCCCC2)c1 . Reported inhibition?
Reply | 2.47

Ask | Item under review: Cc1ccc2nc(/C(C#N)=C/c3ccccc3C(=O)O)[nH]c2c1 . Reported inhibition?
Reply | -0.89

Ask | Item under review: Cc1ccc2nc(/C(C#N)=C/c3ccc(O)c(O)c3)[nH]c2c1 . Reported inhibition?
Reply | 0.8

Ask | Item under review: COCCN(C(=S)Nc1cccc(C)c1C)C(C)c1ccco1 (stereo unspecified) . Reported inhibition?
Reply | 4.25
